- Test system: Mycobacterium smegmatis ATCC 607
Please provide measured MIC for the entries that follow.
// note: answer is a bare numeric in µg/mL

**Q:** Give the measured MIC of Cc1cn(C2C=CC(NC(=O)C(N)CO)C(C(O)(CC(O)CNC(=N)N)C(=O)O)O2)c(=O)nc1N (stereo not shown) [Example 6] .
**A:** 100

**Q:** Consider next the molecule N=C(N)NCC(O)CC(O)(C(=O)O)C1OC(n2cc(F)c(N)nc2=O)C=CC1NC(=O)C(N)CO (stereo not shown) [Example 7] in the same way.
**A:** 100

**Q:** Consider next the molecule N=C(N)NCC(O)CC(O)(C(=O)O)C1OC(n2cc(Br)c(N)nc2=O)C=CC1NC(=O)C(N)CO (stereo not shown) [Example 5] in the same way.
**A:** 25

**Q:** Consider next the molecule N=C(N)NCC(O)CC(O)(C(=O)O)C1OC(n2ccc(N)nc2=O)C=CC1NC(=O)C(N)CO (stereo not shown) [Example 2] in the same way.
**A:** 100

* * *

- run-description: Solubilities
- Type: physicochemical
- experimental-setup: free base; water
readout-name: solubility in water

Cc1cn(C2C=CC(NC(=O)C(N)CO)C(C(O)(CC(O)CNC(=N)N)C(=O)O)O2)c(=O)nc1N (stereo not shown) [Example 6]	Easily soluble
N=C(N)NCC(O)CC(O)(C(=O)O)C1OC(n2cc(Br)c(N)nc2=O)C=CC1NC(=O)C(N)CO (stereo not shown) [Example 5]	Easily soluble
N=C(N)NCC(O)CC(O)(C(=O)O)C1OC(n2ccc(N)nc2=O)C=CC1NC(=O)C(N)CO (stereo not shown) [Example 2]	Easily soluble
N=C(N)NCC(O)CC(O)(C(=O)O)C1OC(n2cc(F)c(N)nc2=O)C=CC1NC(=O)C(N)CO (stereo not shown) [Example 7]	Easily soluble
